B1: GLTSCR2 (parent)
chain: FQRRNMIEPRERAKFKRKYKVKLV

Variants of: B1
Assay: protein stability index of a GFP-peptide fusion (GPS, HEK-293T) (PSI 1-6); higher = more stable;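 note: lentivirally expressed fusions sorted by FACS into six bins by GFP to DsRed ratio, PSI derived from sequencing read proportions per bin multiplied by bin number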
Settings: c terminus: a fixed tail appended

| alteration | protein stability index |
| --- | --- |
| E11L | 2.63 |
| E11R | 2.23 |
| K14G | 1.39 |
| L23Q | 3.43 |
| K22E | 2.41 |
| I7T | 2.31 |
| R4N | 2.7 |
| E8N | 2.3 |
| R3D | 2.71 |
| K18C | 2.05 |
| R3I | 2.17 |
| L23M | 1.69 |
| K20V | 1.99 |
| K22W | 1.67 |
| E8L | 2.27 |
| V24C | 2.25 |
| K16W | 2.7 |
| R12N | 2.45 |
| L23K | 2.41 |
| F1M | 2.08 |
| A13C | 1.98 |
| V24F | 2.54 |
| F15L | 3.05 |
| N5C | 2.62 |
| V24I | 1.91 |
| Q2N | 2.42 |
| K16C | 1.87 |
| A13N | 3.21 |
| E8T | 2.05 |
| K16D | 2.63 |
| N5M | 2.5 |
| Y19D | 3.03 |
| R10L | 2.47 |
| A13P | 2.02 |
| F1L | 3.01 |
| Q2P | 2.06 |
| K16F | 2.4 |
| R10P | 2.2 |
| A13T | 2.03 |
| M6C | 1.74 |
| R10F | 2 |
| K16P | 1.28 |
| E11G | 2.4 |
| K20E | 3.17 |
| M6F | 1.93 |
| K20N | 2.19 |
| R3E | 2.69 |
| V21A | 2.67 |
| I7R | 2.46 |
| K20M | 2.14 |
| V24Y | 2.7 |
| E8V | 2.25 |
| F15N | 2.69 |
| K16S | 2.42 |
| L23T | 2.25 |
| F1E | 2.57 |
| N5D | 2.23 |
| I7A | 2.15 |
| I7F | 2.2 |
| R3H | 1.93 |
| R4W | 1.96 |
| Q2D | 2.35 |
| M6G | 2.57 |
| F15P | 2.44 |
| Q2K | 2.21 |
| L23N | 2.75 |
| A13Y | 2.68 |
| F1V | 2.81 |
| K14Y | 2.39 |
| I7Y | 1.92 |
| K16A | 1.62 |
| R4Q | 2.85 |
| N5G | 2.57 |
| R12M | 2.69 |
| R3T | 1.79 |
| L23A | 2.72 |
| V21W | 2.44 |
| V21S | 2.5 |
| R12A | 1.87 |
| K18V | 2.78 |
| V21G | 2.52 |
| A13L | 2.29 |
| R10Y | 2.17 |
| V24K | 3.09 |
| V21T | 3.07 |
| F15I | 2.51 |
| K22S | 1.94 |
| V21M | 2.34 |
| K20Y | 1.65 |
| R3Q | 2.26 |
| Y19F | 2.52 |
